# MEASURED_TARGET: human ACSS2 protein (Homo sapiens (Human), UniProt Q9NR19)
# Sequence (Q9NR19 whole entry): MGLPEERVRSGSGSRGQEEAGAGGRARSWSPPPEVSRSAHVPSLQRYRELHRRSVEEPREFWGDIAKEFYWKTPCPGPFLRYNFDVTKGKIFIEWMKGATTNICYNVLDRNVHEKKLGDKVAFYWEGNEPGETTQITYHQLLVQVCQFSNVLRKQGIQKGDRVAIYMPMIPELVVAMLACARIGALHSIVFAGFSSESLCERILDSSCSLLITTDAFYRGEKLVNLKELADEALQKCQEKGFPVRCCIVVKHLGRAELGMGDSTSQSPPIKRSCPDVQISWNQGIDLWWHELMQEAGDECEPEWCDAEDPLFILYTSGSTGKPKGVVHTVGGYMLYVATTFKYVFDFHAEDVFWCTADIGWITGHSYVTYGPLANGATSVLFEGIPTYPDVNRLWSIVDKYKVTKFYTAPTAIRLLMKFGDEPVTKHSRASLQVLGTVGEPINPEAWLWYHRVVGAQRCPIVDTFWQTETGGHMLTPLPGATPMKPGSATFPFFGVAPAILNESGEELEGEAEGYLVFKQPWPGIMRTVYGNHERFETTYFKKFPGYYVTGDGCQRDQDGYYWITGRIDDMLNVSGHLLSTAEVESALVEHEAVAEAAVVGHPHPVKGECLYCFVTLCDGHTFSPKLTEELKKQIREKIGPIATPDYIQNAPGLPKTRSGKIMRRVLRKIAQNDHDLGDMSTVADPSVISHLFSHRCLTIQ
Catalogue of IC50 readings, one per entry.

{"columns": ["SUBSTANCE_SMILES", "MEASURED_TARGET", "IC50"],
 "data": [
  ["Cc1cc(C(=O)Nc2cccc(C(C)(F)F)c2)nc(-c2ccc(OC(F)F)cc2)n1", "human ACSS2 protein (Homo sapiens (Human), UniProt Q9NR19)", "1 to 100 nM"],
  ["CCC(F)(F)c1cccc(NC(=O)c2cc(-c3ccc(OC(F)F)c(-c4ccccc4)c3)[nH]c2C)c1", "human ACSS2 protein (Homo sapiens (Human), UniProt Q9NR19)", "> 100 nM"],
  ["Cc1nn(-c2ccc(OC(F)F)cc2)c(OC(=O)N2CCN(CCO)CC2)c1C(=O)Nc1cccc(C(C)(F)F)c1", "human ACSS2 protein (Homo sapiens (Human), UniProt Q9NR19)", "1 to 100 nM"],
  ["Cc1nn(-c2ccc(OC(F)F)cc2)nc1C(=O)Nc1cccc(C(C)(F)F)c1", "human ACSS2 protein (Homo sapiens (Human), UniProt Q9NR19)", "> 100 nM"]
]}

###

# IC50 per entry for UniProt:Q9NR19
MEASURED_METRIC: IC50

{"columns": ["MOLECULE", "MEASURED_METRIC", "VALUE_REPORTED"],
 "data": [
  ["COc1c(C(=O)Nc2cccc(C(C)(F)F)c2)c(C)nn1-c1ccc(OC(F)F)cc1 [Compound 199]", "IC50", "1 to 100 nM"],
  ["Cc1nn(-c2cc(-c3ccccc3)c(OC(F)F)c(-c3ccccc3)c2)cc1C(=O)Nc1cccc(C(C)(F)F)c1 [Compound 176]", "IC50", "1 to 100 nM"],
  ["CCC(F)(F)c1cccc(NC(=O)c2n[nH]c(-c3ccc(OC)cc3)c2Br)c1 [Compound 233]", "IC50", "> 100 nM"],
  ["CCC(F)(F)c1cccc(NC(=O)c2cc(C)nc(-c3ccc(OC(F)F)cc3)n2)c1 [Compound 137]", "IC50", "1 to 100 nM"],
  ["Cc1nc(-c2ccc(OC(F)F)cc2)ncc1C(=O)Nc1cccc(C(C)(F)F)c1 [Compound 144]", "IC50", "> 100 nM"],
  ["Cc1cc(-c2ccccc2)cc(-c2nc(C)cc(C(=O)Nc3cccc(C(C)(F)F)c3)n2)c1 [Compound 219]", "IC50", "> 100 nM"],
  ["CC(=O)c1c(C(=O)Nc2cccc(C(C)(F)F)c2)c(C)nn1-c1ccc(OC(F)F)cc1 [Compound 193]", "IC50", "> 100 nM"],
  ["CCc1c(C(=O)Nc2cccc(C(C)(F)F)c2)c(C)nn1-c1ccc(OC(F)F)c(-c2ccccc2)c1 [Compound 151]", "IC50", "> 100 nM"],
  ["Cc1nc(-c2ccc(OC(F)F)c(-c3ccccc3)c2)ncc1C(=O)Nc1cccc(C(C)(F)F)c1 [Compound 139]", "IC50", "> 100 nM"],
  ["CCC(F)(F)c1cccc(NC(=O)c2ncc(-c3ccc(OC(F)F)cc3)nc2C)c1 [Compound 132]", "IC50", "> 100 nM"],
  ["CCc1c(C(=O)Nc2cccc(C(C)(F)F)c2)c(C)nn1-c1ccc(OC(F)F)c(-c2ccccn2)c1 [Compound 148]", "IC50", "> 100 nM"],
  ["Cc1nn(-c2ccc(OC(F)F)cc2)c(OC(=O)N2CCN(C(C)(C)CO)CC2)c1C(=O)Nc1cccc(C(C)(F)F)c1 [Compound 185]", "IC50", "> 100 nM"],
  ["Cc1nn(-c2ccc(OC(F)F)c(-c3ccccc3)c2)cc1C(=O)Nc1cccc(C(C)(F)F)c1 [Compound 186]", "IC50", "1 to 100 nM"],
  ["CCC(F)(F)c1cccc(NC(=O)c2c(C)nn(-c3ccc(OC)cc3)c2F)c1 [Compound 229]", "IC50", "1 to 100 nM"],
  ["Cc1nn(-c2ccc(OC(F)F)c(-c3cccnc3)c2)c(OC(=O)N2CCC(N3CCCCC3)CC2)c1C(=O)Nc1cccc(C(C)(F)F)c1 [Compound 190]", "IC50", "1 to 100 nM"],
  ["Cc1nn(-c2ccc(OC(F)F)cc2)c(F)c1C(=O)Nc1cccc(C(C)(F)F)c1 [Compound 200]", "IC50", "> 100 nM"]
]}

###

pIC50: −log10 of the molar value.
# pIC50 per entry for human ACSS2 protein (Homo sapiens (Human))

{"columns": ["MOLECULE", "pIC50"],
 "data": [
  ["Cc1nn(-c2ccc(OC(F)F)cc2)c(C2CC2)c1C(=O)Nc1cccc(C(C)(F)F)c1 [Compound 145]", "7.00 to 9.00"],
  ["CCC(F)(F)c1cccc(NC(=O)c2nc(-c3ccc(OC(F)F)cc3)cnc2C)c1 [Compound 125]", "< 7.00"],
  ["Cc1nn(-c2ccc(OC(F)F)cc2)c(N)c1C(=O)Nc1cccc(C(C)(F)F)c1 [Compound 171]", "< 7.00"],
  ["CCC(F)(F)c1cccc(NC(=O)c2n[nH]c(-c3ccc(OC)cc3)c2C(C)=O)c1 [Compound 232]", "< 7.00"],
  ["Cc1nc(-c2ccc(OC(F)F)cc2)oc1C(=O)Nc1cccc(C(C)(F)F)c1 [Compound 141]", "< 7.00"],
  ["Cc1nn(-c2ccc(OC(F)F)c(-c3cccnc3)c2)c(OC(=O)N2CCN(CCO)CC2)c1C(=O)Nc1cccc(C(C)(F)F)c1 [Compound 187]", "< 7.00"],
  ["CCC(F)(F)c1cccc(NC(=O)C2(Cl)C(=O)N(c3ccc(OC(F)F)cc3)N=C2C)c1 (stereo not drawn) [Compound 163]", "> 9.00"],
  ["CCC(F)(F)c1cccc(NC(=O)c2nc(-c3ccc(OC(F)F)c(-c4ccccc4)c3)[nH]c2C)c1 [Compound 218]", "< 7.00"],
  ["COc1ccc(-c2ncc(C)c(C(=O)Nc3cccc(C(C)(F)F)c3)n2)cc1 [Compound 247]", "7.00 to 9.00"],
  ["CCC(F)(F)c1cccc(NC(=O)c2nc(C)c(-c3ccc(OC(F)F)cc3)nc2C)c1 [Compound 105]", "< 7.00"],
  ["CCC(F)(F)c1cccc(NC(=O)c2c(C)nn(-c3ccc(OC)cc3)c2C(=O)OC)c1 [Compound 234]", "< 7.00"],
  ["CCC(F)(F)c1cccc(NC(=O)C2CCN(Cc3ccc(OC)cc3)C(c3ccc(OC)cc3)C2O)c1 (stereo not drawn) [Compound 275]", "< 7.00"],
  ["CC(F)(F)c1cccc(NC(=O)C2C(=O)N(c3ccc(OC(F)F)cc3)N=C2CS)c1 (stereo not drawn) [Compound 197]", "< 7.00"],
  ["CCCC1(C(=O)Nc2cccc(C(C)(F)F)c2)C(=O)N(c2ccc(OC(F)F)c(-c3ccccc3)c2)N=C1C (stereo not drawn) [Compound 111]", "< 7.00"],
  ["COc1c(Cc2ccccc2)cc(N2N=C(C)C(C(=O)Nc3cccc(C(C)(F)F)c3)C2=O)cc1-c1ccccc1 (stereo not drawn) [Compound 122]", "> 9.00"]
]}

###

# IC50 per entry for human ACSS2 protein (Homo sapiens (Human), UniProt Q9NR19)

{"columns": ["MOLECULE", "IC50"],
 "data": [
  ["Cc1nn(-c2ccc(OC(F)F)c(-c3ccccn3)c2)c(C)c1C(=O)Nc1cccc(C(C)(F)F)c1 [Compound 177]", "1 to 100 nM"],
  ["Cc1nn(-c2ccc(OC(F)F)cc2)c(CO)c1C(=O)Nc1cccc(C(C)(F)F)c1 [Compound 194]", "1 to 100 nM"],
  ["Cc1nn(-c2ccc(OC(F)F)c(-c3cocn3)c2)cc1C(=O)Nc1cccc(C(C)(F)F)c1 [Compound 149]", "> 100 nM"],
  ["Cc1nn(-c2ccc(OC(F)F)cc2)c(OC(=O)N2CCC(N3CCCCC3)CC2)c1C(=O)Nc1cccc(C(C)(F)F)c1 [Compound 189]", "1 to 100 nM"],
  ["Cc1nn(-c2ccc(OC(F)F)cc2)c(C(C)C)c1C(=O)Nc1cccc(C(C)(F)F)c1 [Compound 146]", "> 100 nM"],
  ["CCC(F)(F)c1cccc(NC(=O)c2cc(-c3ccc(OC(F)F)cc3)[nH]c2C)c1 [Compound 216]", "> 100 nM"],
  ["CCC(F)(F)c1cccc(NC(=O)c2c(C)[nH]c(-c3ccc(OC)cc3)[n+]2[O-])c1 [Compound 248]", "< 1 nM"]
]}

###

# IC50 per entry for human ACSS2 protein (Homo sapiens (Human), UniProt Q9NR19)

{"columns": ["COMPOUND", "IC50"],
 "data": [
  ["CCC(F)(F)c1cccc(NC(=O)c2nc(-c3ccc(OC)cc3)oc2C)c1 [Compound 116]", "> 0.1 µM"],
  ["CC1=NN(c2ccc(OC(F)F)c(-c3ccncc3)c2)C(=O)C1(F)C(=O)Nc1cccc(C(C)(F)F)c1 (stereo not drawn) [Compound 204]", "< 0.001 µM"],
  ["Cc1nn(-c2ccc(OC(F)F)c(-c3ccccc3)c2)c(C)c1C(=O)Nc1cccc(C(C)(F)F)c1 [Compound 178]", "0.001 to 0.1 µM"],
  ["CCC(F)(F)c1cccc(NC(=O)c2cc(-c3ccc(OC(F)F)c(-c4ccccc4)n3)[nH]c2C)c1 [Compound 223]", "> 0.1 µM"],
  ["CNc1c(C(=O)Nc2cccc(C(C)(F)F)c2)c(C)nn1-c1ccc(OC(F)F)cc1 [Compound 162]", "0.001 to 0.1 µM"],
  ["COc1c(CC2CCCCC2)cc(N2N=C(C)C(C(=O)Nc3cccc(C(C)(F)F)c3)C2=O)cc1-c1ccccc1 (stereo not drawn) [Compound 129]", "0.001 to 0.1 µM"],
  ["Cc1nc(-c2ccc(OC(F)F)c(-c3ccccn3)c2)ncc1C(=O)Nc1cccc(C(C)(F)F)c1 [Compound 120]", "> 0.1 µM"],
  ["CCC(C)Oc1ccc(N2N=C(C)C(F)(C(=O)Nc3cccc(C(C)(F)F)c3)C2=O)cc1 (stereo not drawn) [Compound 207]", "< 0.001 µM"],
  ["CC1=NN(c2ccc(OC(C)C)cc2)C(=O)C1(F)C(=O)Nc1cccc(C(C)(F)F)c1 (stereo not drawn) [Compound 208]", "< 0.001 µM"],
  ["CC1=NN(c2ccc(OC(F)F)c(-c3cccnc3)c2)C(=O)C1(F)C(=O)Nc1cccc(C(C)(F)F)c1 (stereo not drawn) [Compound 206]", "< 0.001 µM"],
  ["COc1c(Cc2ccc(O)cc2)cc(N2N=C(C)C(C(=O)Nc3cccc(C(C)(F)F)c3)C2=O)cc1-c1ccccc1 (stereo not drawn) [Compound 228]", "0.001 to 0.1 µM"],
  ["COc1ccc(-n2nc(C)c(C(=O)Nc3cccc(C(C)(F)F)c3)c2OC(=O)N2CCC(N3CCCCC3)CC2)cc1 [Compound 188]", "0.001 to 0.1 µM"],
  ["CCC(F)(F)c1cccc(NC(=O)c2c(C)[nH]c3cc(OC)ccc3c2=O)c1 [Compound 273]", "0.001 to 0.1 µM"],
  ["Cc1nc(-c2cc(-n3cc(C(=O)Nc4cccc(C(C)(F)F)c4)c(C)n3)ccc2OC(F)F)co1 [Compound 131]", "> 0.1 µM"],
  ["Cc1nn(-c2ccc(OC(F)F)cc2)c(C(F)(F)F)c1C(=O)Nc1cccc(C(C)(F)F)c1 [Compound 192]", "0.001 to 0.1 µM"]
]}

Numbers sourced from patent US12441689B2.
